Value source: ChEMBL document CHEMBL2046276

# Tested on: Malassezia furfur
# protocolText: microbe, parasite or virus in culture
# conditionSet: CBS 9569, 168 h
MIC reference

- molecule: "Nc1cc(C(F)(F)F)c(S(N)(=O)=O)cc1S(N)(=O)=O [2,4-DISULFAMYLTRIFLUOROMETHYLANILINE]"
  MIC: "> 640 µg/mL"
- molecule: "NS(=O)(=O)c1ccc(C(=O)O)cc1 [CARZENIDE]"
  MIC: "> 640 µg/mL"
- molecule: "NS(=O)(=O)c1cc(Cl)c(Cl)c(S(N)(=O)=O)c1 [DICHLORPHENAMIDE]"
  MIC: "> 640 µg/mL"
